Target: Glycine receptor subunit alpha-4 (Mus musculus, UniProt Q61603)
Sequence (Q61603 whole entry): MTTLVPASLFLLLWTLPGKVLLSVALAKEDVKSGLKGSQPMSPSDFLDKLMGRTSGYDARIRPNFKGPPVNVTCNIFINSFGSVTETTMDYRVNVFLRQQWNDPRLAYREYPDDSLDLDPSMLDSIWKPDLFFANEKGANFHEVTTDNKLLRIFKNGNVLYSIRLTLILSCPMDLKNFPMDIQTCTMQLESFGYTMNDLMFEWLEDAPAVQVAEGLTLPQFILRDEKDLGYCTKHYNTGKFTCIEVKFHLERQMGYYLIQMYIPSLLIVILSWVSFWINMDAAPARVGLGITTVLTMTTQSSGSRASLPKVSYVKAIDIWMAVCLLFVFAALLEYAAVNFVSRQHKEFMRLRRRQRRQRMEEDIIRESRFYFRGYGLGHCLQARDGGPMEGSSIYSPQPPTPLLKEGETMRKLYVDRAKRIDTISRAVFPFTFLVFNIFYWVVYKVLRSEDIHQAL
Assay: ChEBML_219281
measuredProperty: Ki

Any idea what its Ki is? The compound is Cc1nccn1CC1CCc2c(c3ccccc3n2C)C1=O (stereo unspecified) [NSC_68647]
> 10 µM

Where do the numbers come from? From BindingDB's records for doi:10.1021/jm00075a026.
